System: A498 renal
Assay: NCI tumour cell line growth inhibition, 48 h
endpoint label: TGI

Worked cases, answers included:
Challenge: Which TGI value belongs to `COC(=O)c1ccc(-n2c(C)nc(=O)c(-c3ccccc3)c2C)cc1` ?
Response given: > 100 µM

Challenge: Which TGI value belongs to Nc1cccc2c1CN(C1CCC(=O)NC1=O)C2=O (stereo unspecified) ?
Response given: > 100 µM

Challenge: Which TGI value belongs to `O=S(=O)(c1ccccc1)n1cnc(CCc2ccccc2)n1` ?
Response given: > 100 µM

Challenge: Which TGI value belongs to `CCOc1ccc(/C=N\N2C(=O)c3ccccc3C2=O)cc1` ?
Response given: > 100 µM

For every item below, please supply its TGI.
1. CSc1ncc2c(C#N)c3ccccn3c(=O)c2n1
2. COc1cc(-c2ccc(Nc3ccccc3C(=O)O)c(OC)c2)ccc1Nc1ccccc1C(=O)O

Response given:
1: > 100 µM; 2: > 96.5 µM
